Test system: KM12 colon
Assay: NCI tumour cell line growth inhibition, 48 h

{"MOLECULE": "COC(=O)C(=O)C(C(=O)C(=O)Nc1ccccc1C(N)=O)c1nc2ccc([N+](=O)[O-])cc2[nH]c1=O (centres undefined)", "TARGET SYSTEM": "KM12 colon", "TGI": "> 100 µM"}
{"MOLECULE": "Cc1ccc([I+]c2ccc(C)cc2)cc1", "TARGET SYSTEM": "KM12 colon", "TGI": "52.2 µM"}
{"MOLECULE": "CN(CCNc1ccc(C(=N)N)cc1)c1ccc(C(=N)N)cc1", "TARGET SYSTEM": "KM12 colon", "TGI": "> 100 µM"}
{"MOLECULE": "COC(=O)c1oc([N+](=O)[O-])c(-c2ccccc2)c1-c1ccccc1", "TARGET SYSTEM": "KM12 colon", "TGI": "> 100 µM"}
{"MOLECULE": "Cc1cc(N(C)C)ccc1N=Nc1ccc2ncccc2c1", "TARGET SYSTEM": "KM12 colon", "TGI": "> 100 µM"}
{"MOLECULE": "CCC(CO)COC(=O)/C=C/C(=O)OCC(CC)CO (centres undefined)", "TARGET SYSTEM": "KM12 colon", "TGI": "> 100 µM"}
{"MOLECULE": "CCOC(=O)C(=O)N=Nc1c(O)[nH]c2ccccc12", "TARGET SYSTEM": "KM12 colon", "TGI": "> 100 µM"}
{"MOLECULE": "COc1ccc(-c2nc(SCC(=O)N/N=C/c3ccc([N+](=O)[O-])cc3)[nH]c2-c2ccc(OC)cc2)cc1", "TARGET SYSTEM": "KM12 colon", "TGI": "35.9 µM"}
{"MOLECULE": "OC1CCC(COC(c2ccccc2)(c2ccccc2)c2ccccc2)O1 (centres undefined)", "TARGET SYSTEM": "KM12 colon", "TGI": "34.3 µM"}
{"MOLECULE": "COc1ccccc1NC(=S)NNC(=O)c1cc(-c2ccccc2)nc2ccccc12", "TARGET SYSTEM": "KM12 colon", "TGI": "46.5 µM"}
{"MOLECULE": "CCOc1ccc(N=C2NC(=O)C(CC(=O)Nc3ccc(Cl)cc3Cl)S2)cc1 (centres undefined)", "TARGET SYSTEM": "KM12 colon", "TGI": "> 100 µM"}
{"MOLECULE": "Fc1cc(C2=Nn3c(nnc3-c3cc(F)c(Cl)cc3Cl)SC2)c(Cl)cc1Cl", "TARGET SYSTEM": "KM12 colon", "TGI": "86.8 µM"}
{"MOLECULE": "NCCSC1(O)C(=O)c2ccccc2-c2ccccc21 (centres undefined)", "TARGET SYSTEM": "KM12 colon", "TGI": "3.33 µM"}
{"MOLECULE": "O=C(NCCCNc1cc(-c2cn(-c3ccccc3)nc2-c2cccc(O)c2)ccn1)c1ccc(F)cc1", "TARGET SYSTEM": "KM12 colon", "TGI": "12.3 µM"}
{"MOLECULE": "CCN(CC)CCC1CCCCN1CC(=O)N1c2ccccc2NC(=O)CC1C (centres undefined)", "TARGET SYSTEM": "KM12 colon", "TGI": "> 100 µM"}
{"MOLECULE": "CCN(CC)CCOc1ccc(N2Cc3cc(OC)c(OC)cc3C2=O)cc1", "TARGET SYSTEM": "KM12 colon", "TGI": "> 100 µM"}
{"MOLECULE": "CO[C@@H]1C[C@H]2[C@@H]3CC[C@H]([C@@H](C)COC(C)=O)[C@@]3(C)CC[C@@H]2[C@@]2(C)CC[C@H]3C[C@]312", "TARGET SYSTEM": "KM12 colon", "TGI": "23.2 µM"}
{"MOLECULE": "CC(=O)OCC(OC(C)=O)C(OC(C)=O)C(/C=N\\Nc1nc2ccccc2c(=O)[nH]1)OC(C)=O (centres undefined)", "TARGET SYSTEM": "KM12 colon", "TGI": "> 100 µM"}
{"MOLECULE": "CCOC(=O)Nc1nc(-c2ccccc2)c(C)s1", "TARGET SYSTEM": "KM12 colon", "TGI": "> 100 µM"}
{"MOLECULE": "Nc1c2ccccc2nc2nccnc12", "TARGET SYSTEM": "KM12 colon", "TGI": "> 100 µM"}
{"MOLECULE": "Cc1cc2c(=O)cc(-c3ccc(O)cc3)oc2c(C(=O)O)c1C", "TARGET SYSTEM": "KM12 colon", "TGI": "> 100 µM"}
{"MOLECULE": "NNC(=S)N/N=C/c1ccccn1", "TARGET SYSTEM": "KM12 colon", "TGI": "> 100 µM"}
{"MOLECULE": "COc1cc(C)cc(C(=O)OCc2ccccc2)c1C1=C(Cl)C(=O)C(Cl)=CC1=O", "TARGET SYSTEM": "KM12 colon", "TGI": "> 10 µM"}
{"MOLECULE": "N#Cc1nc(N)c(C#N)[nH]1", "TARGET SYSTEM": "KM12 colon", "TGI": "> 100 µM"}

----------
TGI by entry:
System: UACC-62 melanoma
Test: NCI tumour cell line growth inhibition, 48 h

{"COMPOUND": "Nc1ccc(N=Nc2ccc(-c3ccc(N=Nc4c(S(=O)(=O)O)cc5cc(S(=O)(=O)O)c(N=Nc6ccc([N+](=O)[O-])cc6)c(N)c5c4O)cc3)cc2)c2cc(S(=O)(=O)O)ccc12", "TARGET SYSTEM": "UACC-62 melanoma", "TGI": "> 100 µM"}
{"COMPOUND": "CCOC(=O)C(CC(C)C)NC(=O)C(N)Cc1ccc(N(CCCl)CCCl)cc1 (centres undefined)", "TARGET SYSTEM": "UACC-62 melanoma", "TGI": "9.56 µM"}
{"COMPOUND": "CCN(CC)CCC1CCCCN1CC(=O)N1c2ccccc2NC(=O)CC1C (centres undefined)", "TARGET SYSTEM": "UACC-62 melanoma", "TGI": "> 100 µM"}
{"COMPOUND": "CO[C@@H]1[C@H](N(C)C(=O)c2ccccc2)C[C@@H]2O[C@]1(C)n1c3ccccc3c3c4c(c5c6ccccc6n2c5c31)C(=O)NC4=O", "TARGET SYSTEM": "UACC-62 melanoma", "TGI": "> 100 µM"}

----------
Tested on: SF-539 CNS
Test: NCI tumour cell line growth inhibition, 48 h
log10 TGI by entry:
EXPERIMENTAL READOUT: log10 TGI (log10 of the value in µM)

{"COMPOUND": "Nc1n[nH]c2ccc([C@H]3[C@@H]4C5CCC(C5)[C@@H]4c4c(ccc5[nH]ncc45)N3S(=O)(=O)C3CC3)cc12 (stereo partly drawn)", "EXPERIMENTAL READOUT": "log10 TGI", "READOUT NUMBER": -0.32}
{"COMPOUND": "CC[C@@]1(O)C(=O)OCc2c1cc1n(c2=O)Cc2cc3c(OC)cccc3nc2-1", "EXPERIMENTAL READOUT": "log10 TGI", "READOUT NUMBER": -0.65}
{"COMPOUND": "Cc1ccc(NC(=O)C23CC4CC(CC(C4)C2)C3)c(C(=O)NNC(=O)c2ccc(Cl)cc2)c1", "EXPERIMENTAL READOUT": "log10 TGI", "READOUT NUMBER": 1.69}
{"COMPOUND": "COc1cc2c3c(n(CCCNC(C)(C)CO)c(=O)c2cc1OC)-c1cc2c(cc1C3=O)OCO2", "EXPERIMENTAL READOUT": "log10 TGI", "READOUT NUMBER": 1.50}
{"COMPOUND": "CCOC(=O)C(=NN(C)c1ncccc1N)C(=O)OCC", "EXPERIMENTAL READOUT": "log10 TGI", "READOUT NUMBER": 1.84}
{"COMPOUND": "COc1cc2cc(Oc3ccc(NC(=O)Nc4ccc(F)c(C(F)(F)F)c4)cc3)c(C)nc2cc1OCCN1CCOCC1", "EXPERIMENTAL READOUT": "log10 TGI", "READOUT NUMBER": 0.54}
{"COMPOUND": "C=CC[C@H](O)[C@@](NC(=O)OCc1ccccc1)(Sc1ccc(C)cc1)C(F)(F)F", "EXPERIMENTAL READOUT": "log10 TGI", "READOUT NUMBER": 1.47}

----------
Tested on: HCT-116 colon
Experiment: NCI tumour cell line growth inhibition, 48 h; in the data active means GI50 below about 0.43 µM; inactive means the rest
Outcome codes: true (active), false (inactive)

{"SMILES RECORD": "Clc1ccc(Nc2ncnc3ccccc23)cc1", "CLASS NAME": "false"}
{"SMILES RECORD": "CO[C@@H]1[C@H](N(C)C(=O)c2ccccc2)C[C@@H]2O[C@]1(C)n1c3ccccc3c3c4c(c5c6ccccc6n2c5c31)C(=O)NC4=O", "CLASS NAME": "false"}
{"SMILES RECORD": "O=C1/C(=C\\c2ccc(Cl)cc2)CN(C(=O)c2ccccc2)C/C1=C\\c1ccc(Cl)cc1", "CLASS NAME": "true"}
{"SMILES RECORD": "Cc1cccc2c1NC(=O)[C@@H](NC(=O)[C@H](CCC(F)(F)F)[C@H](CCC(F)(F)F)C(N)=O)N=C2c1cccc(F)c1", "CLASS NAME": "false"}
